- Tested on: MHC-I expression by COLO 205 cells
- METHOD NOTES: cells
- Type: cell-based, human
- RUN CONDITIONS: Homo sapiens, COLO 205, 48 h, MHC-I expression, COLO 205 cells, compounds at 35 μM, 48 hours, flow cytometry (W6/32); read-out: Induction Fold
Reported fold induction at 35 µM values for the following molecules.
MEASUREMENT KIND: fold induction at 35 µM

| MOLECULE | MEASUREMENT KIND | MEAS VALUE |
| --- | --- | --- |
| CCCCCn1cc(C(=O)c2cccc3c(Cl)cccc23)c2ccccc21 | fold induction at 35 µM | 1.7 |
| CN1CCCCC1Cn1cc(C(=O)C23CC4CC(CC(C4)C2)C3)c2ccccc21 (stereo not drawn) | fold induction at 35 µM | 2.72 |
| Cc1ccc(C(=O)c2cn(CCCCCCl)c3ccccc23)c2ccccc12 | fold induction at 35 µM | 1.89 |
| CCCCCn1nc(C(=O)NC(C)(C(N)=O)C(C)C)c2ccccc21 (single isomer, unassigned) | fold induction at 35 µM | 2.13 |
| CCCCCn1cc(C(=O)C2C(C)(C)C2(C)C)c2ccccc21 | fold induction at 35 µM | 2.45 |
| O=C(Oc1cncc2ccccc12)c1cn(CC2CCCCC2)c2ccccc12 | fold induction at 35 µM | 2.3 |
| CC(F)CCCn1nc(C(=O)NC(C(N)=O)C(C)C)c2ccccc21 (stereo not drawn) | fold induction at 35 µM | 1.43 |
| O=C(c1cccc(I)c1)c1cn(CCCCCF)c2ccccc12 | fold induction at 35 µM | 2.26 |
| O=C(Oc1ccc2ccncc2c1)c1cn(CC2CCCCC2)c2ccccc12 | fold induction at 35 µM | 1.6 |

* * *

- Tested on: MHC-I expression by COLO 205 cells
- METHOD NOTES: cells
- Assay type: cell-based, human
- RUN CONDITIONS: Homo sapiens, COLO 205, 48 h, MHC-I expression, COLO 205 cells, compounds at 35 μM, 48 hours, flow cytometry (W6/32); read-out: Induction Fold
Counter-ions that a name gives are not always drawn.
Entry flag: yes if fold induction at 35 µM reaches 2; no if it does not.

| MOLECULE | GROUP LABEL |
| --- | --- |
| O=C(c1ccccc1I)c1cn(CCCCCF)c2ccccc12 | yes |
| CCC(F)CCn1cc(C(=O)Nc2cccc3ccccc23)c2ccccc21 (stereo not shown) | no |
| O=C(c1cccc2ccccc12)c1cn(CCCCCCl)c2ccccc12 | no |
| COc1ccc(C(=O)c2c(C)n(CCN3CCOCC3)c3cc(Br)ccc23)cc1 | no |
| CC1(C)C(C(=O)c2cn(CCCCCBr)c3ccccc23)C1(C)C | no |
| CN1CCCCC(n2cc(C(=O)c3ccccc3I)c3ccccc32)C1 (stereo not shown) | yes |
| CCc1ccc(C(=O)c2cn(CCCCCF)c3ccccc23)c2ccccc12 | no |
| CCC(C)(C)n1cc(C(=O)c2cccc3ccccc23)c2ccccc21 | yes |
| CC1(C)C(C(=O)c2cn(CCCCCCl)c3ccccc23)C1(C)C | yes |
| CC(C)(NC(=O)c1nn(CCCCCF)c2ccccc12)c1ccccc1 | no |
| COc1ccc(C(=O)c2c(C)n(CCN3CCOCC3)c3ccccc23)cc1 | no |
| CCCCCn1cc(C(=O)c2cccc3cc(CC)ccc23)c2ccccc21 | no |
| CCCCCn1cc(C(=O)c2ccc(F)c3ccccc23)c2ccccc21 | yes |
| O=C(Nc1cccc2ccccc12)c1cn(CCCCCF)c2ccncc12 | no |
| COc1cccc(CC(=O)c2cn(CCC3CCCCC3)c3ccccc23)c1 | yes |
| CCCCCn1cc(C(=O)Oc2cccc3ncccc23)c2ccccc21 | yes |
| CCCCCn1cc(C(=O)N2CCN(C)CC2)c2ccccc21 [Example 273, monohydrochloride] | no |
| CCCCCn1cc(C(=O)c2cccc3ccc(C)cc23)c2ccccc21 | yes |
| CCCC(F)Cn1cc(C(=O)c2ccc(C)c3ccccc23)c2ccccc21 (stereo not shown) | no |

* * *

Reported fold induction at 35 µM values for the following molecules.
- Tested on: MHC-I expression by COLO 205 cells
- METHOD NOTES: cells
- Type: cell-based, human
- RUN CONDITIONS: Homo sapiens, COLO 205, 48 h, MHC-I expression, COLO 205 cells, compounds at 35 μM, 48 hours, flow cytometry (W6/32); read-out: Induction Fold

| MOLECULE | TARGET OR SYSTEM | fold induction at 35 µM |
| --- | --- | --- |
| CC(C)C(C)n1cc(C(=O)c2ccc3ccccc3c2)c2ccccc21 (stereo not drawn) | MHC-I expression by COLO 205 cells | 1.17 |
| CC1(C)C(C(=O)c2cn(CCN3CCOCC3)c3ccccc23)C1(C)C | MHC-I expression by COLO 205 cells | 2.14 |
| O=C(Oc1ccnc2ccccc12)c1cn(CC2CCCCC2)c2ccccc12 | MHC-I expression by COLO 205 cells | 5.41 |
| CCCC(F)Cn1cc(C(=O)Nc2cccc3ccccc23)c2ccccc21 (stereo not drawn) | MHC-I expression by COLO 205 cells | 1.43 |
| COc1cccc2c(C(=O)N[C@@H]3C(C)(C)[C@@H]4CC[C@@]3(C)C4)c(C)n(CCN3CCOCC3)c12 | MHC-I expression by COLO 205 cells | 1.43 |
| CCCCCCC(C)(C)c1ccc([C@H]2CCC[C@@H](O)C2)c(O)c1 | MHC-I expression by COLO 205 cells | 0.78 |
| CCCCCn1cc(C(=O)Cc2cccc(Cl)c2)c2ccccc21 | MHC-I expression by COLO 205 cells | 2.51 |
| NC(=O)[C@H](Cc1ccccc1)NC(=O)c1nn(CC2CCCCC2)c2ccccc12 | MHC-I expression by COLO 205 cells | 3.41 |
| CCCCCn1cc(C(=O)NC(C)(C)c2ccccc2)c2ccccc21 | MHC-I expression by COLO 205 cells | 1.07 |

* * *

Reported fold induction at 35 µM values for the following compounds.
- Test system: MHC-I expression by COLO 205 cells
- METHOD NOTES: cells
- Format: cell-based, human
- RUN CONDITIONS: Homo sapiens, COLO 205, 48 h, MHC-I expression, COLO 205 cells, compounds at 35 μM, 48 hours, flow cytometry (W6/32); read-out: Induction Fold
MEASUREMENT KIND: fold induction at 35 µM

| COMPOUND | MEASUREMENT KIND | MEAS VALUE |
| --- | --- | --- |
| CC1(C)C(C(=O)c2cn(CCCCCF)c3ccccc23)C1(C)C | fold induction at 35 µM | 2.99 |
| C=CCCCn1cc(C(=O)C2C(C)(C)C2(C)C)c2ccccc21 | fold induction at 35 µM | 2.14 |
| CCCCCn1cc(C(=O)c2cccc3cccc(CC)c23)c2ccccc21 | fold induction at 35 µM | 2.35 |
| CC(Cl)CCCn1cc(C(=O)C2C(C)(C)C2(C)C)c2ccccc21 (stereo not drawn) | fold induction at 35 µM | 2.36 |
| CCCCCCC(C)(C)c1ccc([C@@H]2CCC[C@H](O)C2)c(O)c1 (relative stereo) [Example 353] | fold induction at 35 µM | 1.06 |
| CN1CCCC[C@@H]1Cn1cc(C(=O)c2cc([N+](=O)[O-])ccc2I)c2ccccc21 | fold induction at 35 µM | 3.64 |
| O=C(Oc1cccc2cccnc12)c1cn(Cc2ccc(F)cc2)c2ccccc12 | fold induction at 35 µM | 1.87 |
| CC(C)[C@H](NC(=O)c1nn(CCCCCCl)c2ccccc12)C(N)=O | fold induction at 35 µM | 2.01 |
| O=C(Oc1cccc2ccccc12)c1cn(CCCCCF)c2ccccc12 | fold induction at 35 µM | 1.59 |

* * *

Reported fold induction at 35 µM values for the following molecules.
- Test system: MHC-I expression by COLO 205 cells
- METHOD NOTES: cells
- Format: cell-based, human
- RUN CONDITIONS: Homo sapiens, COLO 205, 48 h, MHC-I expression, COLO 205 cells, compounds at 35 μM, 48 hours, flow cytometry (W6/32); read-out: Induction Fold
MEASUREMENT KIND: fold induction at 35 µM

| MOLECULE | TARGET OR SYSTEM | MEAS VALUE |
| --- | --- | --- |
| O=C(Oc1ccc2cccnc2c1)c1cn(CCCCCF)c2ccccc12 | MHC-I expression by COLO 205 cells | 4.34 |
| CCCCCn1cc(C(=O)N[C@@H](Cc2ccccc2)C(N)=O)c2ccccc21 | MHC-I expression by COLO 205 cells | 1.65 |
| CN1CCCCC(n2cc(C(=O)C3C(C)(C)C3(C)C)c3ccccc32)C1 (centres unmarked) | MHC-I expression by COLO 205 cells | 1.38 |
| CC1(C)C(C(=O)c2nn(CCCCCF)c3ccccc23)C1(C)C | MHC-I expression by COLO 205 cells | 1.9 |
| CCC(Cl)CCn1cc(C(=O)c2cccc3ccccc23)c2ccccc21 (centres unmarked) | MHC-I expression by COLO 205 cells | 2.35 |
